# test.target: T1, biotinylated recombinant human WISE (human, UniProt Q6X4U4 24-206, biotinylated (site not stated))
# T1 construct: Same protein as m1, biotinylated; Used in the AlphaScreen with LRP6, in phage panning and on the Octet streptavidin biosensors; also called biotinylated huWise; biotinylated human WISE
# T1 sequence: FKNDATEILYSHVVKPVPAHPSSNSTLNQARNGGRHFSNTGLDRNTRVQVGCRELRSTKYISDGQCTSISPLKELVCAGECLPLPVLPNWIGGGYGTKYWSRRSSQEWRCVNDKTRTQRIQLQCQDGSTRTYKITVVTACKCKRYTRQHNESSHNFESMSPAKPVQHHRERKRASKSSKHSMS
# procedure.details: Octet QK, crude conditioned medium, streptavidin biosensors with biotinylated human WISE
measured.property: binding result

>  <binder>
D14 IgG2 single-residue mutant H127 (antibody, V domains shown, H127 is a mutant label, not a residue number; Tested as crude conditioned medium; also called H127(HC CDR3-4G)) VH: EVQLLESGGGLVQPGGSLRLSCAASGFTFSLYTMQWVRQAPGKGLEWVSGIGSSGGGTSYADSVKGRFTISRDNSKNTLYLQMNSLRAEDTAVYYCARGVSGWFFEYWGQGTLVTVSS VL: QYELTQPPSVAVSPGKTASITCAGDELGNKYAAWYQQKPGQAPVLVVYDDSDRPSGIPERFSGSNSGNTATLTISRVEAGDEADYYCQVWDRSSYHVVFGGGTKLTVLG

>  <result>
binds

$$$$
>  <binder>
D14 IgG2 single-residue mutant L34 (antibody, V domains shown, L34 is a mutant label, not a residue number; Tested as crude conditioned medium; also called L34(LC CDR1-7G)) VH: EVQLLESGGGLVQPGGSLRLSCAASGFTFSLYTMQWVRQAPGKGLEWVSGIGSSGGGTSYADSVKGRFTISRDNSKNTLYLQMNSLRAEDTAVYYCARGVSSWFFEYWGQGTLVTVSS VL: QYELTQPPSVAVSPGKTASITCAGDELGGKYAAWYQQKPGQAPVLVVYDDSDRPSGIPERFSGSNSGNTATLTISRVEAGDEADYYCQVWDRSSYHVVFGGGTKLTVLG

>  <result>
binds

$$$$
>  <binder>
D14 IgG2 single-residue mutant H66 (antibody, V domains shown, H66 is a mutant label, not a residue number; Tested as crude conditioned medium; also called H66(HC CDR2-8P)) VH: EVQLLESGGGLVQPGGSLRLSCAASGFTFSLYTMQWVRQAPGKGLEWVSGIGSSGGPTSYADSVKGRFTISRDNSKNTLYLQMNSLRAEDTAVYYCARGVSSWFFEYWGQGTLVTVSS VL: QYELTQPPSVAVSPGKTASITCAGDELGNKYAAWYQQKPGQAPVLVVYDDSDRPSGIPERFSGSNSGNTATLTISRVEAGDEADYYCQVWDRSSYHVVFGGGTKLTVLG

>  <result>
binds

$$$$
>  <binder>
D14-L36 (antibody, human IgG2, lambda, V domains shown, Tested as crude conditioned medium; also called L36(LC CDR1-7S); LC-CDR1-7 N->S) VH: EVQLLESGGGLVQPGGSLRLSCAASGFTFSLYTMQWVRQAPGKGLEWVSGIGSSGGGTSYADSVKGRFTISRDNSKNTLYLQMNSLRAEDTAVYYCARGVSSWFFEYWGQGTLVTVSS VL: QYELTQPPSVAVSPGKTASITCAGDELGSKYAAWYQQKPGQAPVLVVYDDSDRPSGIPERFSGSNSGNTATLTISRVEAGDEADYYCQVWDRSSYHVVFGGGTKLTVLG

>  <result>
binds

$$$$
